Recorded values, source ChEMBL document CHEMBL5154715.

Experiment: Metabolic stability in C57BL/6 mouse liver microsomes assessed as half life
Format: ADME, Microsome
Details: time 2 min
Property label: half-life (h)
The reply should contain only the number, in h.

Check out these entries, answers already filled in.
| Chemical smiles | half-life / h |
| --- | --- |
| CCCCCCCCCCCCCCCc1cccc(OCC(=O)OCC)c1 | 1.1 |
| CCCCCC/C=C\CCCCCCCc1cccc(OC(C)(C)C(=O)O)c1 | 13.9 |
| CCCCCCCCCCCCCCCc1cccc(OC(C)(C)C(=O)OCC)c1 | 5.58 |
| CCCCCCCCCCCCCCCc1cccc(OC(C)=O)c1C(=O)O | 0.0333 |

Quick check: half-life of CCCCCCCCCCCCCCCc1cccc(OC(C)(C)C(=O)O)c1 ?
6

----------
Experiment: Metabolic stability in C57BL/6 mouse liver microsomes assessed as parent compound remaining incubated for 120 mins
Format: ADME, Microsome
Details: read-out: Stability
Rule: measured remaining at 2 h below 30% gets satisfied; anything equal to or greater than 30% gets not satisfied.

Past entries and their recorded results:
| Chemical smiles | Discrete label |
| --- | --- |
| CCCCCCCCCCCCCCCc1cccc(OC(C)(C)C(=O)OCC)c1 | not satisfied |
| CCCCCCCCCCCCCCCc1cccc(OC(C)=O)c1C(=O)O | satisfied |
| CCCCCCCCCCCCCCCc1cccc(OC(C)(C)C(=O)O)c1 | not satisfied |

Consider CCCCCCCCCCCCCCCc1cccc(OCC(=O)OCC)c1 . Does its remaining at 2 h lie strictly below 30%?
satisfied

# iterate: CCCCCC/C=C\CCCCCCCc1cccc(OC(C)(C)C(=O)O)c1
not satisfied

----------
The following compounds are listed with their measured EC50 values.
Target: Peroxisome proliferator-activated receptor delta (Homo sapiens) (UniProt Q03181);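 note: reporter gene assay with luciferase read-out normalized to beta-galactosidase, measuring agonist activation of PPARδ expressed in HEK293 cells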
Sequence (Q03181 whole entry): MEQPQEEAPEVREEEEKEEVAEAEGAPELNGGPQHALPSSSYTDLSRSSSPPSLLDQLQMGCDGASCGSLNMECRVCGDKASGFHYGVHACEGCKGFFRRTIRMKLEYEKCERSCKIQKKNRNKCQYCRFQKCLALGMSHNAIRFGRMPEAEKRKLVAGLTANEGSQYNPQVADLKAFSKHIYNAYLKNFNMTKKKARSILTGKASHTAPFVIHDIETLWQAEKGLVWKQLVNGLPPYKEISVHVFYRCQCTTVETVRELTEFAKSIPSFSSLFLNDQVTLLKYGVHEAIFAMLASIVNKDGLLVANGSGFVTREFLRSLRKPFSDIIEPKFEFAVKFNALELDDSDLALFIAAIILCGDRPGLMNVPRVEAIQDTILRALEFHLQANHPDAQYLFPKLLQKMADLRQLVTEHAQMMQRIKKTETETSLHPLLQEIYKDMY
Details: HEK293, filed as agonist
Description: Agonist activity at human PPARdelta expressed in HEK293 cells by luciferase/beta-galactosidase reporter gene assay
The reply should contain only the number, in µM.

| Chemical smiles | Property label | Value unit | Measurement |
| --- | --- | --- | --- |
| CCCCCC/C=C\CCCCCCCc1cccc(OCC(=O)OCC)c1 | EC50 | µM | 7.1 |
| CCCCCC/C=C\CCCCCCCc1cccc(OCC(=O)O)c1 | EC50 | µM | 70 |
| CCCCCC/C=C\CCCCCCCc1cccc(OC(C)(C)C(=O)O)c1 | EC50 | µM | 21 |
| CCCCCCCCCCCCCCCc1cccc(OC(C)(C)C(=O)O)c1 | EC50 | µM | 33 |

Quick check: EC50 of CCCCCCCCCCCCCCCc1cccc(OCC(=O)O)c1 ?
10

# iterate: CCCCCCCC/C=C\CCCCCCCC(=O)O
47

# iterate: CCCCCCCCCCCCCCCc1cccc(O)c1C(=O)O
68

----------
Assay: Terminal half life in C57BL/6 mouse at 40 mg/kg, ip […] by LC-MS/MS analysis
Format: ADME, organism-based
Settings: in vivo, read-out: beta t1/2 (converted)
Property label: half-life (h)
The reply should contain only the number, in h.

Quick check: half-life of CCCCCCCCCCCCCCCc1cccc(OC(C)(C)C(=O)O)c1 ?
4

----------
Biological target: Peroxisome proliferator-activated receptor alpha (Homo sapiens)
Sequence (whole entry): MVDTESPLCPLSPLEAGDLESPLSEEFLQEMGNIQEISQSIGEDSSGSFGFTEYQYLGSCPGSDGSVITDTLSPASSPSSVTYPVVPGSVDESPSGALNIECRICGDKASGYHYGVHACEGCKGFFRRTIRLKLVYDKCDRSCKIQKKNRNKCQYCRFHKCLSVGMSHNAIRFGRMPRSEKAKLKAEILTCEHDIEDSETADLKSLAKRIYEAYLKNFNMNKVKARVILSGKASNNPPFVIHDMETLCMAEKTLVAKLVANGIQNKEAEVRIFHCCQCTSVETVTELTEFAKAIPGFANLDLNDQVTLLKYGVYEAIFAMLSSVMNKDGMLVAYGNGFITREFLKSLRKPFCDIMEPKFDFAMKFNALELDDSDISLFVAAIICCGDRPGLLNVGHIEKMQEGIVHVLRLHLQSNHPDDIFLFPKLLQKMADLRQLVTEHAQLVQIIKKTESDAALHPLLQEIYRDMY
Test: Agonist activity at human PPARalpha expressed in HEK293 cells assessed as maximal activity by luciferase/beta-galactosidase reporter gene assay relative to GW7647
Type: cell-based
Property label: Emax (%)
The reply should contain only the number, in %.

| Compound | Measurement |
| --- | --- |
| CCCCCC/C=C\CCCCCCCc1cccc(OC(C)(C)C(=O)OCC)c1 | 30 |
| CCCCCCCCCCCCCCCc1ccc(C(=O)O)c(OC)c1 | 30 |
| CCCCCCCCCCCCCCCc1cccc(OCC(=O)O)c1 | 30 |
| CCCCCCCCCCCCCCCc1cccc(OC(C)(C)C(=O)OCC)c1 | 5 |

Quick check: Emax of CCCCCCCCCC(=O)O [DECANOIC ACID] ?
30

# iterate: CCCCCC/C=C\CCCCCCCc1cccc(OCC(=O)OCC)c1
30

# iterate: CCCCCCCCCCCCCCCc1cccc(OC)c1C(=O)O
30

# iterate: CCCCCCCCCCCCCCCc1cccc(O)c1C(=O)O [ANACARDIC ACID]
30

# iterate: CCCCCCCCCCCCCCCCCC(=O)O [STEARIC ACID]
30

# iterate: CCCCCCCCCCCCCCCc1cccc(OCC(=O)OCC)c1
30

# iterate: CCCCCCCCCCCCCCCc1ccc(C(=O)O)c(O)c1
30

# iterate: CCCCCCCCCCCCCC(=O)O [MYRISTIC ACID]
30

# iterate: CCCCCCCCCCCCCCCc1cccc(OC(C)(C)C(=O)O)c1
30
